molecular target: HiBiT tagged CK1α (Homo sapiens, UniProt P48729+Q96SW2); test: CK1α degradation assay (HiBiT assay); format: cell-based; conditions: HT-1080, HT-1080 cells, 20 hours; maximum CK1α degradation
Sequence (P48729 whole entry): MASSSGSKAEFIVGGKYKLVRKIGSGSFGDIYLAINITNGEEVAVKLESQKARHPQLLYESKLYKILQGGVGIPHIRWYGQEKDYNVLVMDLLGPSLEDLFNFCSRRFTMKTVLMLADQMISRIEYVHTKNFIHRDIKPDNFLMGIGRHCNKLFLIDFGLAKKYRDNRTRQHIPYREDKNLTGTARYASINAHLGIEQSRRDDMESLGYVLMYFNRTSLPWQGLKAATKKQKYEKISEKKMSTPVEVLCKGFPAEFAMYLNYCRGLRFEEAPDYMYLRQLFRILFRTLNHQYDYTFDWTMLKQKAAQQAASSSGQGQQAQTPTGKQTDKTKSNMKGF
Sequence (Q96SW2 whole entry): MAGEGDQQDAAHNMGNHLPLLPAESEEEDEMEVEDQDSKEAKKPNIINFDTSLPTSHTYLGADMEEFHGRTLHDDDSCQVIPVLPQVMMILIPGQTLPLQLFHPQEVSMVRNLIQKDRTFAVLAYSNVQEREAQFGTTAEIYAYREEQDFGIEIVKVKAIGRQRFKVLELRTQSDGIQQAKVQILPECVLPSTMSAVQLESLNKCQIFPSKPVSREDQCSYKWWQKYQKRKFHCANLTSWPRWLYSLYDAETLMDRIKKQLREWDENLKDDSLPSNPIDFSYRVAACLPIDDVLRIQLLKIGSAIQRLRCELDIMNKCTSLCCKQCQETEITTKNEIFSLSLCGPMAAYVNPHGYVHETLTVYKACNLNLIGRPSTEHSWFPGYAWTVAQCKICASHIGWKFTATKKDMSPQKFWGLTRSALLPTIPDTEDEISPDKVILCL
Sequence (Q16531 whole entry partner): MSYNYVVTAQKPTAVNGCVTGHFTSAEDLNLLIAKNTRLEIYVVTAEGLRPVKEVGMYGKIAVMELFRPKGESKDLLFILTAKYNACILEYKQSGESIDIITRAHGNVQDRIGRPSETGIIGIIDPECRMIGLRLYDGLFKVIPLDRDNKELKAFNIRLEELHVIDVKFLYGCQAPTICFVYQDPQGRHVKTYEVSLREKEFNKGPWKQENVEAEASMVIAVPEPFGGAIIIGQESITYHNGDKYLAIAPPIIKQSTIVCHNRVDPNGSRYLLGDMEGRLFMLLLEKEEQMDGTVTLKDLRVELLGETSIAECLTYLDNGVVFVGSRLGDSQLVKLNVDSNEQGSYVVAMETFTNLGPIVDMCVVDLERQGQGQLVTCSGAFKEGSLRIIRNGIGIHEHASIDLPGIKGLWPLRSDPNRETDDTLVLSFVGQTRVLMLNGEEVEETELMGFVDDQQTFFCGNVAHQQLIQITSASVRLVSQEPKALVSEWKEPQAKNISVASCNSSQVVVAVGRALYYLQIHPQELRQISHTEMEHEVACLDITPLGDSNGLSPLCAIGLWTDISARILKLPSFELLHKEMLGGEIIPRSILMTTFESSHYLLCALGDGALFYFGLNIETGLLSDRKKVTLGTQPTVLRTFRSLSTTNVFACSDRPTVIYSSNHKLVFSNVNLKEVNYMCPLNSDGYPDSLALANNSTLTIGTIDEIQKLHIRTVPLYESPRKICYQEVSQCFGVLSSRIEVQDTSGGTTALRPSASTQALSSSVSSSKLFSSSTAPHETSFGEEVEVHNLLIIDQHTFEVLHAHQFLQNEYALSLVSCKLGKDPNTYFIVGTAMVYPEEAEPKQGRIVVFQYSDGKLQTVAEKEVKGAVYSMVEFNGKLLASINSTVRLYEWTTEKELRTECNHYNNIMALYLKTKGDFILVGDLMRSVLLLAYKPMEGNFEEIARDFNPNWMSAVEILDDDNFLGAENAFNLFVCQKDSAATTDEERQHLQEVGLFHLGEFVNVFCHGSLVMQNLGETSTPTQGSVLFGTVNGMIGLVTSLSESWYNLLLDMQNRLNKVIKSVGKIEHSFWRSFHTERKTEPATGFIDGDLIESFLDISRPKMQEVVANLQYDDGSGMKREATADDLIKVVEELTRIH
Assay readout: Dmax (%)
All answers are understood in %, so give the number only.

A selection of reference data follows.
Qu. Look up Dmax for this compound: O=C1CC[C@H](N2Cc3cc(C(=O)N[C@H](c4ccc(F)cc4Cl)C4CCC4)ccc3C2=O)C(=O)N1 (racemic)
Ans. 62.3

Qu. Lookup O=C1CCC(N2Cc3cc(C(=O)N[C@H](c4cccc(C(F)(F)F)c4)C4CC4)ccc3C2=O)C(=O)N1 (stereo in doubt)
Ans. 59.5

Qu. Then O=C1CCC(N2Cc3cc(C(=O)NC(c4ccc(Cl)cc4F)C4CC4)ccc3C2=O)C(=O)N1 (stereo not drawn) ?
Ans. 67.1

Qu. Lookup O=C1CCC(N2Cc3cc(C(=O)N[C@H](c4ccc(F)cc4)C4CC4)ccc3C2=O)C(=O)N1 (stereo in doubt)
Ans. 60.8

***
Qu. Request the reported Dmax associated with O=C1CC[C@@H](N2Cc3cc(C(=O)N[C@H](c4ccc(F)cc4Cl)C4CCC4)ccc3C2=O)C(=O)N1 (racemic)
Ans. 63.1

Qu. Now give it for Cn1cc(-c2cccnc2[C@@H](NC(=O)c2ccc3c(c2)CN([C@H]2CCC(=O)NC2=O)C3=O)C2CCC2)cn1 (single isomer, unassigned) too.
Ans. 72.4

# credit: patent US12673936B2
